- method_notes: probe aInhba binding on compound microarray – biochemical, small-molecule microarray, 635/667 nm fluorescence, primary screen (AID 1148);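 further: score merges 667nm spot fluorescence with signal-to-noise for antibody binding to printed compounds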
- condition_details: higher = more signal
Let's look at some compounds and their measured composite z-score.

compound: COc1cc(C(O)C2C=CC3C(=O)N(c4ccccc4)C(=O)C3N2Nc2ccccc2)cc(OC)c1OC (configuration not stated)
composite z-score: 0.38
//
compound: COCCOC(=O)N1C(=O)[C@@]2(c3cc(C#Cc4ccc(OC)cc4)ccc31)[C@H](c1ccc(OCCO)cc1)N1[C@H](c3ccccc3)[C@H](c3ccccc3)OC(=O)[C@H]1[C@@H]2C(=O)NC[C@H](O)c1ccccc1
composite z-score: 0.0301
//
compound: CN(C)CCCNC(=O)[C@@]1(C)c2ccccc2C(=O)N(Cc2ccc(OC(F)(F)F)cc2)[C@H]1c1ccc(CO)cc1
composite z-score: 0.0778
//
compound: COC(=O)[C@@]1(Cc2ccc(OC)cc2)[C@H]2c3cc(C(=O)N4CCCC4)n(Cc4c(CO)[nH]cc(C)c4=O)c3C[C@H]2CN1C(=O)c1ccccc1
composite z-score: 0.0569
//
compound: C=CCOC(=O)[C@H]1[C@@H]2C(=O)O[C@@H](c3ccccc3)[C@@H](c3ccccc3)N2[C@@H](c2ccc(OCCOC(=O)[C@H]3C[C@H]4C(=O)N[C@@H](CC(C)C)C(=O)N4[C@H]3c3ccc(O)cc3)cc2)[C@]12C(=O)Nc1ccccc12
composite z-score: 0.0544
//
compound: COCCOC(=O)N1C(=O)[C@@]2(c3cc(C#CCCO)ccc31)[C@H](C(N)=O)[C@H]1C(=O)O[C@H](c3ccccc3)[C@H](c3ccccc3)N1[C@@H]2c1ccccc1OCCO
composite z-score: 0.017
//
compound: C=CCC(OC(C)=O)[C@@H]1[C@@H](N(Cc2cccc3ccccc23)C(=O)c2ccc(-c3ccccc3)cc2)c2cc(OCCCO)ccc2N1C(=O)Cc1ccc2ccccc2c1 (some centres not stated)
composite z-score: 0.0108
//
compound: C=C(COC)C(=O)CC[C@@H](OC(=O)c1ccccc1-c1ccccc1C(=O)O)c1ccc(OCCO)cc1
composite z-score: 0.0018
//
compound: O=C1N(Cc2ccccc2)c2ccccc2C[C@@]12COC(c1ccc(OCCCO)cc1)=N2
composite z-score: 0.397
//
compound: C=CCC(OC(C)=O)[C@@H]1[C@@H](N(Cc2cc3ccccc3o2)C(=O)c2cccc3ccccc23)c2cc(OCCCO)ccc2N1C(=O)c1ccc2ccccc2n1 (some centres not stated)
composite z-score: -0.0131
//
compound: CCC(CC)C(O)C1C=CC2C(=O)N(c3ccccc3)C(=O)C2N1Nc1ccccc1F (configuration not stated)
composite z-score: -0.0044
//
compound: C=CCNC(=O)[C@H]1[C@@H]2C(=O)O[C@@H](c3ccccc3)[C@@H](c3ccccc3)N2[C@@H](c2ccc(OCCO)cc2)[C@]12C(=O)Nc1ccccc12
composite z-score: -0.244
//
compound: NC(=O)N1C(=O)C2C(C1=O)C1C=C(CCCO)C2C(c2ccc(CN3CCCC3)cc2)N1Cc1sc2ccccc2c1Cl (configuration not stated)
composite z-score: -0.268
//
compound: CCOC(=O)C1=CC[C@@H](c2ccc(OC)cc2)N(S(=O)(=O)c2ccc(C)cc2)[C@H]1CC
composite z-score: 0.152
//
compound: C=C(CCCC)/C(=C/C[C@H](OC(C)=O)c1cccc(OCCO)c1)c1cnc2ccccc2c1
composite z-score: -0.208
//
compound: O=C1[C@@H]2[C@@H](CC(COc3ccccc3)=C([C@H](O)CCc3ccccc3)[C@@H]2CO)C(=O)N1Cc1ccccc1
composite z-score: -0.274
//
compound: CC(C)(C)N1CC=CC23O[C@@H]4C=CCCOC(=O)C4[C@H]2C(=O)N(CCCCCCO)[C@@H]3C1=O (some centres not stated)
composite z-score: -0.0933
//
compound: COc1ccc([Si](C)(C)[C@H]2[C@H](CC(=O)N3Cc4ccccc4C[C@H]3CO)O[C@@]3(C(=O)N(C)c4ccccc43)[C@@H]2C)cc1
composite z-score: 0.0342
//
compound: C=CCC(OC(C)=O)[C@@H]1[C@@H](N(Cc2cccc3ccccc23)C(=O)Cc2ccc(OC)cc2)c2cc(OCCCO)ccc2N1C(=O)Cc1ccc2ccccc2c1 (some centres not stated)
composite z-score: -0.181
//
compound: CCCN1C(=O)[C@]2(CCC(=O)OC(C)(C)C)N=C(c3ccc(OCCCO)cc3)O[C@@H]2c2ccccc21
composite z-score: 0.173
//
compound: COc1ccc([Si](C)(C)[C@@H]2[C@@H](CC(=O)N(CCO)Cc3ccccc3)O[C@]3(C(=O)N(Cc4ccc(N5C(=O)c6cccc7cccc5c67)cc4)c4ccccc43)[C@H]2C)cc1
composite z-score: -0.0112
//
compound: CCCCCCc1nc(Cc2cc(OC)c(OC)c(OC)c2)cc2c1[Si](C(C)C)(C(C)C)O[C@H]2c1ccccc1
composite z-score: -0.154
//
compound: COC(=O)[C@@]1(Cc2ccc(F)cc2)[C@H]2c3cc(C(=O)N(C)C)n(CCc4ccc(O)c(O)c4)c3C[C@H]2CN1C(=O)c1ccccc1
composite z-score: 0.528
//
compound: Cc1ccc(S[C@]2(C(=O)NC(C)C)CC(=O)N(C3CCCCC3)[C@@H]2c2ccc(CO)cc2I)cc1
composite z-score: -0.0589
//
compound: CC(C)C[C@@H]1NC(=O)[C@@H]2C[C@H](C(=O)NCCCCCCNC(=O)CS)[C@H](c3cccc(OCCO)c3)N2C1=O
composite z-score: 0.159
//
compound: CCOC(=O)C1=CC[C@@H](c2ccc(OC)cc2)N(S(=O)(=O)c2ccc(C)cc2)[C@H]1c1ccc(C)cc1
composite z-score: 0.1
//
compound: CC(C)NC(=O)[C@@]1(C)c2ccccc2C(=O)N(Cc2ccccc2)[C@H]1c1ccc(CO)cc1
composite z-score: -0.312
